assayExplanation: in vitro
Format: in vitro ADME
assaySetup: rat, microsomes
Catalogue of compounds with associated microsomal CLint at 1 µM
Respond with the bare value in µL/min/mg.

// worked examples, microsomal CLint at 1 µM included
CC(C)=CCC/C(C)=C/CNCCNC(C)(C)C1C2CC3CC(C2)CC1C3 (centres unmarked) [Compound 8]; 467
CC(C)=CCC/C(C)=C/CNCCNC1(C)C2CC3CC(C2)CC1C3 (centres unmarked) [Compound 7]; 373
CC(C)=CCC/C(C)=C/CNCCNC1C2CC3CC(C2)CC1C3 (centres unmarked) [Compound 1, reference compound]; 385
CCCC1(NCCNC/C=C(\C)CCC=C(C)C)C2CC3CC(C2)CC1C3 (centres unmarked) [Compound 6]; 400

Proceed to the following item.
Qu. Fill in the blank: the reported microsomal CLint at 1 µM of CC(C)=CCC/C(C)=C/CNCCNC1(c2ccccc2)C2CC3CC(C2)CC1C3 (centres unmarked) [Compound 5] is ____.
Ans. 514

All figures here come from paper PMC11406516.
